The values you see were collected from the supplement of paper PMC10899765.

System: MCF10A
protocol: percent viability (nuclei count relative to siNT); higher = more viable cells
condition.notes: 20 nM; 72 h
Criterion: percent viability strictly less than 70%. Met: class 1. Not met: class 0.

Check if percent viability falls below 70% for UGUAAACAUCCUCGACUGGAAG [hsa-miR-30a-5p] . class 1

Does the reported percent viability of the following sequence sit strictly below 70%? CUAGACUGAAGCUCCUUGAGG [hsa-miR-151a-3p] class 1

Identify whether the sequence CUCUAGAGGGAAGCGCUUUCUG [hsa-miR-518e-5p] records percent viability below 70%. class 1

Given the entry UAUAUAUACAGCCAUGCACUC [hsa-miR-5011-5p] , would its reported percent viability be below 70%? class 0

Threshold test, percent viability < 70%: CUAUAUAUCAAACAUAUUCCU [hsa-miR-190a-3p] class 1

Is percent viability of UGGUUCUCUUGUGGCUCAAGCGU [hsa-miR-597-3p] strictly below 70%? class 1

* * *

Tested on: MCF10A
protocol: one-nucleolus phenotype percent effect (relative to siNT 0% and siNOL11 100%); higher = more cells with one nucleolus (ribosome biogenesis inhibition)
condition.notes: 20 nM; 72 h
Field: one-nucleolus phenotype percent effect. Provide a value for each of the sequences that follow.
Reply numerically in %, unit not repeated.

Consider the sequence shown here: ACUGGCAUGCUGCAUUUAUAUA [hsa-miR-4799-3p] What is its recorded one-nucleolus phenotype percent effect? -19.8

Any idea what one-nucleolus phenotype percent effect was measured for AGCGUGGGAUGUCCAUGAAGUCAG [hsa-miR-6853-5p] ? -26.6

Fill in the blank: the reported one-nucleolus phenotype percent effect of GAUCUCACUUUGUUGCCCAGG [hsa-miR-1285-5p] is ____. -20.8

Name the recorded one-nucleolus phenotype percent effect for AGGAGGCAUCUUGAGAAAUGGA [hsa-miR-3612] . 33.4

# get_value(readout='one-nucleolus phenotype percent effect', item= UUCAACAAGGGUGUAGGAUGG [hsa-miR-7159-5p] ) -19.4

Please give the measured one-nucleolus phenotype percent effect for this sequence: CAACCACCACUGUCUCUCCCCAG [hsa-miR-6776-3p] -24.4

* * *

Would you kindly list 5+ nucleoli phenotype percent effect for each of these sequences?
Test system: MCF10A
protocol: 5+ nucleoli phenotype percent effect (relative to siNT 0% and siKIF11 100%); higher = more cells with five or more nucleoli
condition.notes: 20 nM; 72 h
Provide the reading as a plain figure in %.

Endpoint output: 5+ nucleoli phenotype percent effect of UCGACAGCACGACACUGCCUUC [hsa-miR-196b-3p] . Value? 5.68

Form field: reported 5+ nucleoli phenotype percent effect of AAAGUGCUUCCUUUUUGAGGG [hsa-miR-520e] 57.7

Which 5+ nucleoli phenotype percent effect value belongs to CUGCAGACUCGACCUCCCAGGC [hsa-miR-1273h-3p] ? -28.5

Entry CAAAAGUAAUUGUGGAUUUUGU [hsa-miR-548n] has what 5+ nucleoli phenotype percent effect? 52.2

Would you kindly share the measured 5+ nucleoli phenotype percent effect for ACCCUUGAGCCUGAUCCCUAGC [hsa-miR-4780] ? 4

Given AUAUAAUACAACCUGCUAAGUG [hsa-miR-374b-5p] , state its recorded 5+ nucleoli phenotype percent effect. 35.9

Name the recorded 5+ nucleoli phenotype percent effect for AGGUAGAAUGAGGCCUGACAU [hsa-miR-4650-3p] . -12.9

Give the measured 5+ nucleoli phenotype percent effect of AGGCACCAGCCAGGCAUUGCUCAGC [hsa-miR-593-5p] . -0.886

Tell me the measured 5+ nucleoli phenotype percent effect of UCUCCCUUCCUGCCCUGGCUAG [hsa-miR-4685-3p] , please. 29.5

Item CUGGGACAGGAGGAGGAGGCAG [hsa-miR-4298] has what recorded 5+ nucleoli phenotype percent effect? 39.2

Quick one: 5+ nucleoli phenotype percent effect of UCGCGCCCCGGCUCCCGUUC [hsa-miR-1292-3p] ? 9.03

* * *

System: MCF10A
protocol: 5+ nucleoli phenotype percent effect (relative to siNT 0% and siKIF11 100%); higher = more cells with five or more nucleoli
condition.notes: 20 nM; 72 h
parameter.measured: 5+ nucleoli phenotype percent effect (%)
Please reply with the bare figure in % and do not write the unit itself.

Endpoint output: 5+ nucleoli phenotype percent effect of CAACCUCGAGGAUCUCCCCAGC [hsa-miR-3150b-5p] . Value? 20.8

# lookup: 5+ nucleoli phenotype percent effect of GCUGACAGCAGGGCUGGCCGCU [hsa-miR-4526] 16.9

Find the recorded 5+ nucleoli phenotype percent effect belonging to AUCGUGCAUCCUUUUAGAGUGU [hsa-miR-517c-3p] and report it. -11.3

Given AAACUAAUCUCUACACUGCUGC [hsa-miR-3129-3p] , state its recorded 5+ nucleoli phenotype percent effect. 5.92

Entry under review: UUUGCAGUAACAGGUGUGAGCA [hsa-miR-6516-5p] . Reported 5+ nucleoli phenotype percent effect? -40.6

What value of 5+ nucleoli phenotype percent effect has been reported for the following sequence? CUAAGAAGUUGACUGAAG [hsa-miR-3653] -37.5

Consider the sequence shown here: UGGGUGUAGGCUGGAGCUGAGG [hsa-miR-6772-5p] What is its recorded 5+ nucleoli phenotype percent effect? -8.54

I'd like to know its 5+ nucleoli phenotype percent effect. The sequence in question is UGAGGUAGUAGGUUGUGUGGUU [hsa-let-7b-5p] 33.9

Please give the measured 5+ nucleoli phenotype percent effect for this sequence: ACACUUGUUGGGAUGACCUGC [hsa-miR-6500-3p] -37.8

I have this sequence here, CCAGGAGGCGGAGGAGGUGGAG [hsa-miR-4459] , and I need its recorded 5+ nucleoli phenotype percent effect. -0.862

# 5+ nucleoli phenotype percent effect lookup, item ACAGACUUGCUGUGAUGUUCA [hsa-miR-499b-5p] -7.28

Data request, read-out 5+ nucleoli phenotype percent effect, for GAGGUUUUCUGGGUUUCUGUUUC [hsa-miR-329-5p] 17.3

* * *

Kindly supply the reported one-nucleolus phenotype percent effect values for the records listed here.
Test system: MCF10A
protocol: one-nucleolus phenotype percent effect (relative to siNT 0% and siNOL11 100%); higher = more cells with one nucleolus (ribosome biogenesis inhibition)
condition.notes: 20 nM; 72 h
Please reply with the bare figure in % and do not write the unit itself.

Using the record for AGCGAGGUUGCCCUUUGUAUAU [hsa-miR-381-5p] , report its one-nucleolus phenotype percent effect. -12.7

If you can, please state the reported one-nucleolus phenotype percent effect value of GGUGGGGGGUGUUGUUUU [hsa-miR-4472] . 9.55

one-nucleolus phenotype percent effect lookup needed for GCGGAAGGCGGAGCGGCGGA [hsa-miR-6125] , thanks. -24.1

Suppose we examine the sequence AGAGCUCACAGCUGUCCUUCUCUA [hsa-miR-3670] ; what one-nucleolus phenotype percent effect value has been reported? 17.6

Query: one-nucleolus phenotype percent effect; subject: AGCCUGUGCUUGUCCCUGCAG [hsa-miR-6811-3p] 24.6

Field request: one-nucleolus phenotype percent effect | item: CUCUCCCUCUUUACCCACUAG [hsa-miR-6867-3p] -35

Recorded one-nucleolus phenotype percent effect of AGGAAGCCCUGGAGGGGCUGGAG [hsa-miR-671-5p] , please. 58.7

Need one-nucleolus phenotype percent effect, item CUUUGAGCACAUGAGCAGACGGA [hsa-miR-8055] -6.93

Entry CUGCCCUAGUCUAGCUGAAGCU [hsa-miR-3157-3p] has what one-nucleolus phenotype percent effect? -21.2

State the recorded one-nucleolus phenotype percent effect for this entry: CAGGCCAUAUUGUGCUGCCUCA [hsa-miR-15a-3p] 23

Which one-nucleolus phenotype percent effect value is on record for UGUCGUGGGGCUUGCUGGCUUG [hsa-miR-4440] ? 2.65

Can you look up the measured one-nucleolus phenotype percent effect of UACAGCCCUGUGAUCUUUCCAG [hsa-miR-6856-3p] for me? -21

Would you kindly share the measured one-nucleolus phenotype percent effect for UGUCACUCGGCUCGGCCCACUAC [hsa-miR-668] ? -1.34

For the sequence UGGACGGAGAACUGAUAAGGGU [hsa-miR-184] , what one-nucleolus phenotype percent effect is on record? -17.7

Entry UAACUGGUUGAACAACUGAACC [hsa-miR-582-3p] has what one-nucleolus phenotype percent effect? -29.8

Reported one-nucleolus phenotype percent effect for CCUCCUGAUGAUUCUUCUUC [hsa-miR-3653-5p] : what is it? -22.7

Which one-nucleolus phenotype percent effect reading was recorded for the sequence AAAAUGGUUCCCUUUAGAGUGU [hsa-miR-522-3p] ? -12.4

Returns the measured one-nucleolus phenotype percent effect for the input sequence. Input: UGGUGGAGGAAGAGGGCAGCUC [hsa-miR-6880-5p] -4.17

Endpoint output: one-nucleolus phenotype percent effect of CAGUGAUCGUCUCUGCUGGC [hsa-miR-8079] . Value? 6.32

Could you share which one-nucleolus phenotype percent effect value was measured for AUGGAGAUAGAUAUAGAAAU [hsa-miR-620] ? 24

Could you tell me which one-nucleolus phenotype percent effect is on file for UUCCCUAUCUCACUCUCCUCAG [hsa-miR-6883-3p] ? -14.4

Report one-nucleolus phenotype percent effect for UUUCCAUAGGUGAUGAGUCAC [hsa-miR-587] please. -21.6

What does the data say about its one-nucleolus phenotype percent effect? Entry: UCAUCCUCGUCUCCCUCCCAG [hsa-miR-5196-3p] -13.1

# input sequence: UUACACAGCUGGACAGAGGCA [hsa-miR-4672] ; wanted: its one-nucleolus phenotype percent effect 38.5
